These measurements were taken from ChEMBL document CHEMBL4619814.

assay: Half life in Sprague-Dawley rat at 5 mg/kg, iv; format: ADME, organism-based; conditions: in vivo

{"chemicalSmiles": "CC(C)(C)c1cc(NC(=O)Nc2ccc(-c3cn(-c4ccc(OCCN5CCOCC5)cc4Cl)nn3)cc2)no1", "half-life, min": 307}

###

target: UniProt:P07333; experiment: Binding affinity to recombinant human CSF1R (564 to 939 residues) expressed in bacterial expression system by Kinomescan method
Sequence (P07333 whole entry, the tested form may be a part): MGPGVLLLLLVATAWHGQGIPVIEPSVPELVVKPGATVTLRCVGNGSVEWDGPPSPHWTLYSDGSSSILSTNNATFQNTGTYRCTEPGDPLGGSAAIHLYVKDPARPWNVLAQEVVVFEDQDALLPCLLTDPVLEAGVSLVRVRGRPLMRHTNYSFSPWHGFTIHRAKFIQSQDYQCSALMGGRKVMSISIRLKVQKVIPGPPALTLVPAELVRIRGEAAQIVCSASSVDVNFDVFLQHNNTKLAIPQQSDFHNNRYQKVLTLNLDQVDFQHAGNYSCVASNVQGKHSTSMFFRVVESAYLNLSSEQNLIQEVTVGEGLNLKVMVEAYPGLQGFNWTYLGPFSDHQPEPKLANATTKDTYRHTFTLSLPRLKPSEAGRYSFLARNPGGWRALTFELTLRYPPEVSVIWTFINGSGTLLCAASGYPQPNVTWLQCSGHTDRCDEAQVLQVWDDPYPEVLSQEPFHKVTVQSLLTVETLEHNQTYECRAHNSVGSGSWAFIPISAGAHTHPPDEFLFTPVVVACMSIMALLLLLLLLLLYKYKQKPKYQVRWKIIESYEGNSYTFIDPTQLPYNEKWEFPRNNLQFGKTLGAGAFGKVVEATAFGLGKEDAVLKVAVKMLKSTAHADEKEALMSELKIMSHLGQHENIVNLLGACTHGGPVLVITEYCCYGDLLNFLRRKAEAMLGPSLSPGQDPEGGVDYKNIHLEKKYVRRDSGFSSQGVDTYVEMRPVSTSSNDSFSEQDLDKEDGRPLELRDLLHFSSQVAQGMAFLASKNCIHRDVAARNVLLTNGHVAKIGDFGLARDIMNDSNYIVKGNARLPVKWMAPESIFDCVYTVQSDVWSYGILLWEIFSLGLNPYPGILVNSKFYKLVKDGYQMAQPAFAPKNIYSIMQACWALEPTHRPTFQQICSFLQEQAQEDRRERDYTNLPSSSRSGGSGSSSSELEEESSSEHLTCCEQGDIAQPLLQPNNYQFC

{"chemicalSmiles": "CC(C)(C)c1cc(NC(=O)Nc2ccc(-c3cn(-c4ccc(OCCN5CCOCC5)cc4Cl)nn3)cc2)no1", "Kd / nM": 100}

###

Molecular target: Receptor-type tyrosine-protein kinase FLT3 (Homo sapiens)
Sequence (P36888 whole entry): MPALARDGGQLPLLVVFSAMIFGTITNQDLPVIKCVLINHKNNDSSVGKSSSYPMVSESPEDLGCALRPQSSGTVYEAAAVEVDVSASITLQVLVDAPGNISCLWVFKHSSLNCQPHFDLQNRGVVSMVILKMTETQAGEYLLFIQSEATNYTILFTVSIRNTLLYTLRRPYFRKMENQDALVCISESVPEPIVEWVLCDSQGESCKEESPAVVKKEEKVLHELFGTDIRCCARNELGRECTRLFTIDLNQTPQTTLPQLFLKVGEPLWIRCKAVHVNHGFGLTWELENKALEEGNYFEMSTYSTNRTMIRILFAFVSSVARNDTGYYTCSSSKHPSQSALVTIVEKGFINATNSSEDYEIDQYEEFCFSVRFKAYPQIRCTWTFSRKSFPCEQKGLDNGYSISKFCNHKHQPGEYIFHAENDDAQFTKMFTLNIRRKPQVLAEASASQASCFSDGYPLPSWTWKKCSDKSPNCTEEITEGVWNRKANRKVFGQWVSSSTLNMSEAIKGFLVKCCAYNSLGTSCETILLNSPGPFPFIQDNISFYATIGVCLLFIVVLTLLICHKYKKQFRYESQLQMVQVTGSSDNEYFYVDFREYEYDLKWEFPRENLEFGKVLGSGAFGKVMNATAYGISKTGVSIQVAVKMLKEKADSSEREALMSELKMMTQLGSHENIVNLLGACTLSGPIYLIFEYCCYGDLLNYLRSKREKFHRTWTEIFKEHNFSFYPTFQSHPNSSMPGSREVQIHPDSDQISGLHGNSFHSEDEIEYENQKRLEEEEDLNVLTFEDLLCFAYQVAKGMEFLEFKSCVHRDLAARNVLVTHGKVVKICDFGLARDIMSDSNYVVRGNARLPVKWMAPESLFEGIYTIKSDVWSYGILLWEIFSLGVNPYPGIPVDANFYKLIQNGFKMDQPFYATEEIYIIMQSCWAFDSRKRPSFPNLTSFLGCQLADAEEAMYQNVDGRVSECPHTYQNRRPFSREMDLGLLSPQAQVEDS
pKd: −log10 of the molar value.

{"chemicalSmiles": "CC(C)(C)c1cc(NC(=O)Nc2ccc(-c3cn(-c4ccc(OCCN5CCOCC5)cc4Cl)nn3)cc2)no1", "pKd": 8.46}

###

test: Tmax in Sprague-Dawley rat at 5 mg/kg, iv; assay type: ADME, organism-based; settings: in vivo

{"chemicalSmiles": "CC(C)(C)c1cc(NC(=O)Nc2ccc(-c3cn(-c4ccc(OCCN5CCOCC5)cc4Cl)nn3)cc2)no1", "Tmax / min": 15}

###

target: Receptor-type tyrosine-protein kinase FLT3 (Homo sapiens, UniProt P36888, F691L/ITD)
valueKind: Kd (µM)

{"chemicalSmiles": "CC(C)(C)c1cc(NC(=O)Nc2ccc(-c3cn(-c4ccc(OCCN5CCOCC5)cc4Cl)nn3)cc2)no1", "reported": 2.4}
